Property: growth; scope: individual compounds
System: SF-268 CNS
Assay: NCI-60 one-dose screen, 48 h (100 = growth as untreated, 0 = no growth, -100 = all killed)
Conditions: 10 µM unless noted
Protocol: Cells are grown in 96 well plates and exposed to the test compound for 48 hours. Compounds are tested at a single concentration, which is 10^-5 M for most compounds. The reported endpoint is percent growth (GI% or GIPRCNT), where numbers from 0 - 100% represent growth inhibition, and numbers from -100% - 0 represent cell death. For example, a value of 40 represents 60% growth inhibition. A value of 0 means no net growth occurred over the course of the experiment. […]
About 83,000 compounds went through this panel and 20% of them were active in at least one assay; those are over-represented in the sample as a whole.

[
  {
    "compound": "CSc1ccc(NC(=O)c2ccc3nnn(/C(C#N)=C/c4ccccn4)c3c2)cc1",
    "tested_on": "SF-268 CNS",
    "growth, %": -3.01
  },
  {
    "compound": "CCOC(=O)/C=C/c1cccc2c1C(=O)NC(C)(c1cc3cc(Cl)ccc3oc1=O)N2 (stereo unspecified)",
    "tested_on": "SF-268 CNS",
    "growth, %": 45.5
  },
  {
    "compound": "COc1ccc2[nH]c(O)c(N=NC(=O)Cn3c(-c4ccccc4)nc4cc(C)ccc43)c2c1",
    "tested_on": "SF-268 CNS",
    "growth, %": 38.5
  },
  {
    "compound": "OCNc1ccc(-n2cnc3cc(-c4ccc(O)cc4)ccc32)cc1C(F)(F)F",
    "tested_on": "SF-268 CNS",
    "growth, %": 24.7
  },
  {
    "compound": "Cc1cc2c(cc1Cl)C(=O)/C(=C/c1ccccc1)O2",
    "tested_on": "SF-268 CNS",
    "growth, %": 64
  },
  {
    "compound": "COCOc1cc2oc(C(=O)N[C@@H](Cc3ccccc3)C(O)C(=O)NCc3ccccc3)c(C)c(=O)c2cc1OCOC (stereo partly specified)",
    "tested_on": "SF-268 CNS",
    "growth, %": 65.8
  },
  {
    "compound": "O=c1[nH]c2ccccc2cc1CSc1cccc(Nc2nccc(-c3ccc4ccccc4c3)n2)c1",
    "tested_on": "SF-268 CNS",
    "growth, %": 98.1
  },
  {
    "compound": "COc1cc2nc(SCc3ccccc3)n(-c3ccc(Cl)cc3)c(=O)c2cc1OC",
    "tested_on": "SF-268 CNS",
    "growth, %": -12.9
  },
  {
    "compound": "C[C@H](Nc1nc(NCCc2ccccc2)nc2ccccc12)c1ccccc1",
    "tested_on": "SF-268 CNS",
    "growth, %": -70.4
  },
  {
    "compound": "O=C(c1ccccc1)c1ccc2nc(-c3cccc(Cl)c3)[nH]c2c1",
    "tested_on": "SF-268 CNS",
    "growth, %": 106
  },
  {
    "compound": "CCN1CCN(Cc2ccc(C(=O)Nc3cccc(C#Cc4cccc5[nH]nc(N)c45)c3)cc2C(F)(F)F)CC1",
    "tested_on": "SF-268 CNS",
    "growth, %": -61.6
  },
  {
    "compound": "CN1CCN(c2ccc(C(=O)/C=C/c3cc(C(F)(F)F)cc(C(F)(F)F)c3)cc2)CC1",
    "tested_on": "SF-268 CNS",
    "growth, %": -51
  },
  {
    "compound": "O=C(c1ccc(OCCN2CCOCC2)cc1)C1[C@H](c2ccc(Cl)cc2)[C@@H](c2ccccc2)NC12C(=O)Nc1ccc(Br)cc12 (stereo partly specified)",
    "tested_on": "SF-268 CNS",
    "growth, %": 39.6
  },
  {
    "compound": "CC(=O)NNc1ccc2nnc(-c3ccccc3)n2n1",
    "tested_on": "SF-268 CNS",
    "growth, %": 95
  },
  {
    "compound": "Cn1cc(-c2nnc(N)nc2-c2c[nH]c3ccc(Br)cc23)c2cc(Br)cnc21",
    "tested_on": "SF-268 CNS",
    "growth, %": 71.3
  },
  {
    "compound": "CCCS(=O)(=O)N1CCCC(C(=O)Nc2nc3ccc(NC(=O)c4ccc(F)c(OC)c4F)cc3s2)C1 (stereo unspecified)",
    "tested_on": "SF-268 CNS",
    "growth, %": 56.9
  },
  {
    "compound": "Cc1ccc2c(N)c(C(=O)Nc3ccc(-c4ccccc4)cc3)sc2n1",
    "tested_on": "SF-268 CNS",
    "growth, %": 101
  },
  {
    "compound": "CCN(CC)c1ccnc(CNCCSC(c2ccccc2)(c2ccccc2)c2ccc(C)cc2)c1",
    "tested_on": "SF-268 CNS",
    "growth, %": -55.8
  },
  {
    "compound": "O=c1oc2ccc(Br)cc2cc1C1=CSc2nc3sc4c(c3c(=O)n2N=C1)CCCC4",
    "tested_on": "SF-268 CNS",
    "growth, %": 101
  },
  {
    "compound": "COc1c(F)ccc(C(=O)Nc2ccc3nc(NC(=O)C4CCCN(S(=O)(=O)c5ccc(Br)c(F)c5)C4)sc3c2)c1F (stereo unspecified)",
    "tested_on": "SF-268 CNS",
    "growth, %": 96.7
  },
  {
    "compound": "CC(/C=C1\\SC(=S)N(CCCC(=O)NC(CC(C)C)C(=O)O)C1=O)=C\\c1ccccc1 (stereo unspecified)",
    "tested_on": "SF-268 CNS",
    "growth, %": 100
  },
  {
    "compound": "CN1CCc2c(sc3ncnc(N/N=C/c4ccc(Cl)cc4Cl)c23)C1",
    "tested_on": "SF-268 CNS",
    "growth, %": 35.8
  },
  {
    "compound": "CCOP(=O)(OCCCl)c1nc(-c2ccc(C)cc2)oc1NCc1ccccc1 (stereo unspecified)",
    "tested_on": "SF-268 CNS",
    "growth, %": 73.7
  },
  {
    "compound": "O=C(NNc1nc2cc(F)ccc2n2c(CN3CCCCC3)ccc12)c1cnccn1",
    "tested_on": "SF-268 CNS",
    "growth, %": -20.9
  },
  {
    "compound": "CC12CC[C@@H]3[C@]4(C)COC(c5cn[nH]c5-c5cccc(Cl)c5)O[C@@H]4CC[C@@]3(C)[C@@H]1CC(C1=CCOC1=O)O2 (stereo partly specified)",
    "tested_on": "SF-268 CNS",
    "growth, %": 45.5
  },
  {
    "compound": "N/C(=N\\c1nc2ccccc2s1)NC(=O)Nc1ccc(Cl)cc1Cl",
    "tested_on": "SF-268 CNS",
    "growth, %": -2.76
  },
  {
    "compound": "O=C(O)c1ccc(-c2ccc(/C=N/NC(=O)c3[nH]c4ccc(Br)cc4c3-c3ccccc3)s2)cc1",
    "tested_on": "SF-268 CNS",
    "growth, %": 21.1
  },
  {
    "compound": "Cn1cc(-c2cc(N)n3nc(-c4c[nH]c5ccccc45)cc3n2)c2cccnc21",
    "tested_on": "SF-268 CNS",
    "growth, %": 81.6
  },
  {
    "compound": "S=c1c2ccccc2nc2n1CCc1c-2[nH]c2ccccc12",
    "tested_on": "SF-268 CNS",
    "growth, %": 57.7
  },
  {
    "compound": "CC1(C)CC[C@]2(C(=O)O)CC[C@]3(C)C(=CCC4[C@@]5(C)C[C@@H](O)[C@@H]6OC(c7ccccc7F)OC[C@@]6(C)C5CC[C@]43C)C2C1 (stereo partly specified)",
    "tested_on": "SF-268 CNS",
    "growth, %": 14.3
  },
  {
    "compound": "COc1ccc(C(=O)/C=C/c2cc3c(cc2Br)OCO3)cc1S(N)(=O)=O",
    "tested_on": "SF-268 CNS",
    "growth, %": 18.1
  }
]

====

Property: growth; scope: individual compounds
test system: A498 renal; test: NCI-60 one-dose screen, 48 h (100 = growth as untreated, 0 = no growth, -100 = all killed); details: 10 µM unless noted
This is part of a sample that, as a whole, favours compounds with a hit. Of some 83,000 tested, about 20% had one in any assay.

[
  {
    "compound": "O=c1[nH]c(=O)c2c(-c3cc4ccccc4oc3=O)ccnc2[nH]1",
    "growth, %": 148
  },
  {
    "compound": "COc1cc(C2CC(c3ccc(S(=O)(=O)NCCNc4nc(Nc5ccc(F)cc5)nc(N(C)C)n4)cc3)=Nc3c(N)nc(N)nc3N2)cc(OC)c1OC (stereo unspecified)",
    "growth, %": 86.8
  },
  {
    "compound": "Cn1cc(-c2cc3nc(-c4c[nH]c5ccc(Cl)cc45)cc(N)n3n2)c2ccccc21",
    "growth, %": -62.7
  },
  {
    "compound": "Clc1cccc(-c2ccc(OCCCN3CCN(c4ccncc4)CC3)cc2)c1",
    "growth, %": 65.5
  },
  {
    "compound": "Cc1ccc(Cc2cnc(NC(=O)c3ccc(/C=C4\\SC(=S)N(C)C4=O)cc3)s2)cc1",
    "growth, %": 107
  },
  {
    "compound": "N#Cc1ccc(/C=N/NC(=O)c2[nH]c3ccc(Br)cc3c2-c2ccccc2)o1",
    "growth, %": 78.1
  },
  {
    "compound": "Cc1ccc([C@H]2C(C(=O)c3ccc(Cl)cc3)C3(N[C@@H]2c2ccccc2)C(=O)Nc2ccccc23)cc1 (stereo partly specified)",
    "growth, %": 75.5
  },
  {
    "compound": "COc1ccc(C(=O)Nc2n[nH]c(Nc3ccccc3)c2C#N)cc1",
    "growth, %": 108
  },
  {
    "compound": "Cc1cc(C)cc(C(=O)Nc2cccc(-c3cn(-c4ccc(S(N)(=O)=O)cc4)nn3)c2)c1",
    "growth, %": -13.4
  },
  {
    "compound": "CN(C)c1ccnc(CNCCSC2(c3ccc(C(F)(F)F)cc3)c3ccccc3C=Cc3ccccc32)c1",
    "growth, %": 21.6
  },
  {
    "compound": "O=C(N=Nc1c(O)[nH]c2ccc(Cl)cc12)c1ccc2nc(-c3ccccc3)[nH]c2c1",
    "growth, %": 137
  },
  {
    "compound": "CC(C)c1sc(NC(=O)c2cc(NC(=O)c3cc(NC(=O)c4nccn4C)cn3C)cn2C)nc1C(=O)NCCCN(C)C",
    "growth, %": 116
  },
  {
    "compound": "COc1cc2c(c(OC)c1OC)C(=O)CC(c1cccc(NC(=O)c3cc(N)ccc3Cl)c1)O2 (stereo unspecified)",
    "growth, %": 105
  },
  {
    "compound": "Cc1cc2nc3c4ccccc4n(CCNCCN(C)C)c3nc2cc1C",
    "growth, %": 75.4
  },
  {
    "compound": "Nc1nc(C(F)(F)F)cs1",
    "growth, %": 114
  },
  {
    "compound": "COc1cc(/C=C/C(=O)c2ccc(C)cc2)ccc1Oc1nc(Nc2ccc(F)cc2)nc(N(C)C)n1",
    "growth, %": 66.3
  },
  {
    "compound": "O=C(NN1C(=O)/C(=C/C=C/c2ccc([N+](=O)[O-])o2)SC1=S)c1ccc(Cl)cc1",
    "growth, %": -93.7
  },
  {
    "compound": "CCOC(=O)c1ccc(Nc2nc(NN)nc(-c3ccc(F)cc3)c2C#N)cc1",
    "growth, %": 101
  },
  {
    "compound": "Cc1cc2nc3c([nH]c2cc1C)c1ccc(=O)cc1n3CCN(C)C",
    "growth, %": 111
  },
  {
    "compound": "CC(=O)OC[C@@]1(C)C2CC[C@]3(C)C(CC=C4C5CC(C)(C)CC[C@]5(C(=O)Nc5ccc(Br)cc5)CC[C@]43C)[C@@]2(C)C[C@@H](OC(C)=O)[C@@H]1OC(C)=O (stereo partly specified)",
    "growth, %": 64.3
  },
  {
    "compound": "CN(C)CCCNC(=O)c1cc(NC(=O)c2cc(NC(=O)c3ccc(C#Cc4ccccc4)cc3)cn2C)cn1C",
    "growth, %": 83.5
  }
]
